B1: MLL5 (parent)
chain: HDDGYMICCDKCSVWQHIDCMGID

Variants of: B1
MEASUREMENT_NOTES: protein stability index of a GFP-peptide fusion (GPS, HEK-293T) (PSI 1-6); higher = more stable;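 also: lentivirally expressed fusions sorted by FACS into six bins by GFP to DsRed ratio, PSI derived from sequencing read proportions per bin multiplied by bin number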
CONDITION_PARAMETERS: c terminus: a fixed tail appended
PROPERTY: protein stability index

[[record]]
mutation_string = "G4P"
value_reported = 2.69

[[record]]
mutation_string = "C9P"
value_reported = 3.03

[[record]]
mutation_string = "M6V"
value_reported = 3.1

[[record]]
mutation_string = "Q16S"
value_reported = 1.93

[[record]]
mutation_string = "I7G"
value_reported = 3.82

[[record]]
mutation_string = "D2T"
value_reported = 2.99

[[record]]
mutation_string = "D19N"
value_reported = 1.91

[[record]]
mutation_string = "V14T"
value_reported = 2.93

[[record]]
mutation_string = "I23H"
value_reported = 3.15

[[record]]
mutation_string = "Q16M"
value_reported = 2.65

[[record]]
mutation_string = "H17G"
value_reported = 2.72

